Tested on: SR leukemia
Test: NCI-60 one-dose screen, 48 h (100 = growth as untreated, 0 = no growth, -100 = all killed)
Conditions: 10 µM unless noted
About 83,000 compounds went through this panel and 20% of them were active in at least one assay; those are over-represented in the sample as a whole.
readout.type: growth (%)
The reply should contain only the number, in %.

Exercise: # lookup: growth of c1ccc2c(c1)CN(CCCN1CCOCC1)C2
Key: 97.8

Exercise: # lookup: growth of O=C(NCc1ccc(Cn2c(=O)sn(-c3ccccc3)c2=O)cc1)OCc1ccc2c(Br)cc(Br)c(O)c2n1
Key: 4.62

Exercise: # lookup: growth of O=C(CSc1nc2ccc([N+](=O)[O-])cc2[nH]1)Nc1cccc(Cl)c1
Key: 12.7

Exercise: # lookup: growth of CCN=C1C=CC(=C(c2ccc(N(CC)CC)cc2)c2ccc(N(CC)CC)cc2)c2ccccc21
Key: -7.85

Exercise: # lookup: growth of CCOC(=O)c1cc(C(=O)c2ccc(OC)c(OC)c2)n2ccc(-c3ccccn3)cc12
Key: 75.8

Exercise: # lookup: growth of COc1ccc(/C=C(/C2=NCCN2)n2ccc3ccccc32)cc1
Key: 79.5

Exercise: # lookup: growth of c1cc2ccc1CNCCN1CCNCc3ccc(cc3)Oc3ccc(cc3)CNCCN(CCNCc3ccc(cc3)O2)CCNCc2ccc(cc2)Oc2ccc(cc2)CNCC1
Key: -40.1

Exercise: # lookup: growth of O=C(CCCSc1nc(-c2ccccc2)cc(-c2ccccc2)n1)NO
Key: 1.05

----------
Test system: SNB-19 CNS
Test: NCI-60 one-dose screen, 48 h (100 = growth as untreated, 0 = no growth, -100 = all killed)
Conditions: 10 µM unless noted
Compounds without any hit were thinned out: in the full panel of roughly 83,000, 20% have a hit. Activity calls are given as the source filed them. Rule for the calls: active = growth percent below 10; inactive = the rest.
For each record, write down the corresponding growth.

Exercise: # lookup: growth of O=C(CCNCc1ccccc1)c1ccccc1
Key: 114% (inactive)

Exercise: # lookup: growth of O=C(CCCCCCSc1nc(-c2ccc(Cl)cc2)cc(-c2ccc(Cl)cc2)n1)NO
Key: 37.3% (inactive)

Exercise: # lookup: growth of C[C@]12CCc3c(ccc4cc(O)ccc34)[C@@H]1CC[C@H]2O
Key: 87.2% (inactive)

Exercise: # lookup: growth of O=c1cc(-c2ccccc2)oc2c(O)c(O)ccc12
Key: 58% (inactive)

Exercise: # lookup: growth of C[C@@H]1C[C@H]2C(=O)O[C@@H](C)[C@H](NC(=O)[C@H](Cc3cc(F)cc(F)c3)NC(=O)Nc3ccc(C4CC4)cc3F)C(=O)N3CCC[C@H]3C(=O)N3CCCC[C@H]3C(=O)N[C@@H](C)C(=O)N2C1
Key: 15.8% (inactive)

Exercise: # lookup: growth of Cn1cc(-c2nnc(-c3cn(C)c4ncc(Br)cc34)s2)c2cc(Br)ccc21
Key: 94.9% (inactive)

Exercise: # lookup: growth of c1cc2ccc3cc2cc1CNCCN1CCNCc2ccc4ccc(cc4c2)CNCCN(CCNC3)CCNCc2ccc3ccc(cc3c2)CNCC1
Key: -7.68% (active)

Exercise: # lookup: growth of Fc1cc2[nH]ncc2c2c3c(c(-c4cn[nH]c4C(F)(F)F)nc12)C1CCC3C1 (stereo unspecified)
Key: 10.1% (inactive)

Exercise: # lookup: growth of CCN(CC)c1ccc2cc(C(Nc3ccc(Cl)cc3)c3nnnn3C(C)(C)C)c(=O)oc2c1 (stereo unspecified)
Key: 87% (inactive)

Exercise: # lookup: growth of C=C(C)[C@@H]1CC[C@]2(COCCC#N)CC[C@]3(C)[C@H](CC[C@@H]4[C@@](C)(CCCNCCC#N)[C@H](C(=C)C)CC[C@]43C)[C@@H]12
Key: 59% [100 µM] (inactive)

Exercise: # lookup: growth of O=C(NNc1ccc(-c2ccccc2)nn1)c1ccc(F)cc1
Key: 86.5% (inactive)

Exercise: # lookup: growth of CCN(CC)CCCC(C)Nc1ccnc2cc(Cl)c(SCc3ccccc3)cc12 (stereo unspecified)
Key: -34.9% (active)

Exercise: # lookup: growth of CCCc1cc2cc(-n3nc(C)c4c3CC(C)(C)CC4=O)cc(NC3CCSCC3)c2c(=O)[nH]1
Key: 72% (inactive)

Exercise: # lookup: growth of CCCN1CC(c2ccc(OC)c(OC)c2)=C(c2cn(C(=O)OCC)c3ccccc23)C1=O
Key: 50.3% (inactive)

Exercise: # lookup: growth of N/C(=N\c1nc2ccccc2[nH]1)NC(=O)Cc1cccc2ccccc12
Key: 87.6% (inactive)

Exercise: # lookup: growth of CSc1nc2c(c(=O)n1C)C1(C(=O)N(Cc3ccccc3)c3ccccc31)c1c(nc(SC)n(C)c1=O)N2
Key: 91.5% (inactive)
